- assayTarget: hGPR40 (Homo sapiens, UniProt O14842)
- Construct: 3x FLAG
- Sequence (O14842 whole entry): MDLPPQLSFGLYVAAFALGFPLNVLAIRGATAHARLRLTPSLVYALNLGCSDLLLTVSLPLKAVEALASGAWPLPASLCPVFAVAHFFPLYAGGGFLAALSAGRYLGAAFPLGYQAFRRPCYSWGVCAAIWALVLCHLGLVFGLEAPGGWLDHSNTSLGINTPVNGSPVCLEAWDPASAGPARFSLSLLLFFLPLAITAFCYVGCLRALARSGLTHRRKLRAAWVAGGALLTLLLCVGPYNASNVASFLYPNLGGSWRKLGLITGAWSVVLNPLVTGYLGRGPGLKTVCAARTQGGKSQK
- methodDescription: FDSS-Based Intracellular Calcium Assay
- studyConditions: cells expressing GPR40, intracellular Ca2+ response
pEC50: −log10 of the molar value.
# key: entry, value: pEC50

{"columns": ["compound", "pEC50"],
 "data": [
  ["COc1cccc(-c2ccc(Oc3ccc(N4N=C(C(F)(F)F)CC4CC(=O)O)cc3)c(C)c2)c1 (single isomer, unassigned) [Example 9, Isomer 1]", 6.72],
  ["COc1ccc(F)c(-c2ccc(Cc3ccc(N4N=C(C(F)(F)F)C(C(C)C)C4CC(=O)O)cc3)c(C)c2)c1 (single isomer, unassigned) [Example 45, Isomer 1]", 5.42],
  ["COc1ncccc1-c1ccc(Cc2ccc(N3N=C(C(F)(F)F)[C@@H](C)[C@@H]3CC(=O)O)cc2)c(C)c1", 5.27],
  ["COc1ccc(F)c(-c2ccc(Cc3ccc(N4N=C(C(F)(F)F)C(C(C)C)C4CC(=O)O)cc3)c(C)c2)c1 (single isomer, unassigned) [Example 45, Isomer 2]", 7.15],
  ["COc1ccc(F)c(-c2ccc(Oc3ccc(N4N=C(C(F)(F)F)CC4CC(=O)O)cc3)c(C)c2)c1 (single isomer, unassigned) [Example 14, Isomer 1]", 6.78]
]}
